Cited source: paper PMC6173509

Target: steroid sulfatase (STS) (Homo sapiens, UniProt P08842)
Sequence (P08842 22-583): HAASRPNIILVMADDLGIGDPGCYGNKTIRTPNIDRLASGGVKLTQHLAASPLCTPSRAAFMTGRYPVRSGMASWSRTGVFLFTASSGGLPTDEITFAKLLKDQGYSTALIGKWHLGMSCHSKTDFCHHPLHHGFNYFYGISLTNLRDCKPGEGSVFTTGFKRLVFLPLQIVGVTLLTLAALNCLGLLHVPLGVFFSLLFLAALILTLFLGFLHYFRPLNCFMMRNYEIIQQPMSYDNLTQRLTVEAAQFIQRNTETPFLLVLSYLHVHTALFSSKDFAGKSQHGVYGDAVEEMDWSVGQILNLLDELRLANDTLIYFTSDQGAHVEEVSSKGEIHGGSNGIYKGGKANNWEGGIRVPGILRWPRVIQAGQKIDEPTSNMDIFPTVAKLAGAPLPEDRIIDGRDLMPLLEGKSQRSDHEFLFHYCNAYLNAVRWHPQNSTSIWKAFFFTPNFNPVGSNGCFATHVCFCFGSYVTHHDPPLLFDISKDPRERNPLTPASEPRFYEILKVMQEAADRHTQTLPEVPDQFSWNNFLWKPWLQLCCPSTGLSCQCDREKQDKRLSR
Experiment: STS inhibition in intact MCF-7 breast cancer cells
Format: cell-based
Set-up: endogenous in cells; host or cells: MCF-7 breast cancer cells
Settings: 3 nM E1S
pIC50: −log10 of the molar value.
The label depends only on pIC50: 1 if it is at least 8, 0 if it is smaller.

Use the examples below as a reference point.
>>> cat("NS(=O)(=O)Oc1ccc2c(Cc3ccccc3)cc(=O)oc2c1 [compound 23, 4-Benzylcoumarin-7-O-sulfamate]")
0
>>> cat("CCc1ccc(-c2cc(=O)oc3cc(OS(N)(=O)=O)ccc23)cc1 [compound 25, 4-(4-Ethylphenyl)coumarin-7-O-sulfamate]")
0
>>> cat("NS(=O)(=O)Oc1ccc2c(CCc3ccccc3)cc(=O)oc2c1 [compound 24, 4-(2-Phenylethyl)coumarin-7-O-sulfamate]")
0
>>> cat("Cc1c(Cl)c(=O)oc2cc(OS(N)(=O)=O)ccc12 [compound 39, 3-Chloro-4-methylcoumarin-7-O-sulfamate]")
0
>>> cat("Cc1c(-c2ccccc2)c(=O)oc2cc(OS(N)(=O)=O)ccc12 [compound 40, 4-Methyl-3-phenylcoumarin-7-O-sulfamate]")
0
>>> cat("Cc1c(CCc2ccccc2)c(=O)oc2cc(OS(N)(=O)=O)ccc12 [compound 42]")
1

[ask] Is pIC50 for NS(=O)(=O)Oc1ccc2c(C3CCCCC3)cc(=O)oc2c1 [compound 26, 4-Cyclohexylcoumarin-7-O-sulfamate] at or above 8?
[reply] 0

[ask] Another compound: NS(=O)(=O)Oc1ccc2c(CCl)cc(=O)oc2c1 [compound 21, 4-Chloromethylcoumarin-7-O-sulfamate]
[reply] 0

[ask] What about CCCCCCCCCCc1c(C)c2ccc(OS(N)(=O)=O)cc2oc1=O [compound 33, 3-Decyl-4-methylcoumarin-7-O-sulfamate] ?
[reply] 1

[ask] Next compound up: CCCCCCCCCCCCCc1cc(=O)oc2cc(OS(N)(=O)=O)ccc12 [compound 18, 4-Tridecylcoumarin-7-O-sulfamate]
[reply] 1
